Here, each record is paired with measured IC50 data.
- experimental target: unphosphorylated PDGFRβ kinase (uPDGFRβ, Seq. ID No. 3) (Homo sapiens, UniProt P09619)
- Sequence (P09619 557-1106): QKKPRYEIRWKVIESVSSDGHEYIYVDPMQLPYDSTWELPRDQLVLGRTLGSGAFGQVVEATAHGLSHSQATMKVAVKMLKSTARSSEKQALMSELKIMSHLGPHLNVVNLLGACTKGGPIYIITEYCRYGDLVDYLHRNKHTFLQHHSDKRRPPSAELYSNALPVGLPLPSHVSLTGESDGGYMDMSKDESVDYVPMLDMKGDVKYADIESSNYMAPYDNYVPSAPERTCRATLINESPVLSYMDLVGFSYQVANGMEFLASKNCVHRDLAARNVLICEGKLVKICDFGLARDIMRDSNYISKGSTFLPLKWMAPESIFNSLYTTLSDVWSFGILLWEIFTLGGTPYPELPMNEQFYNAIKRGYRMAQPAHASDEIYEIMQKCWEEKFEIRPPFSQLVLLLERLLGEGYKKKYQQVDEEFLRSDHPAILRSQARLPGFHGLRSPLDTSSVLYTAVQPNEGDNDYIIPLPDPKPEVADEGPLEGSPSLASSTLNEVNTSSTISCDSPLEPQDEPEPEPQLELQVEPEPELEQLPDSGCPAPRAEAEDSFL
- experiment description: biochemical
- condition description: uPDGFRb, enzymatic assay, ATP 500 μM
measure name: IC50

compound=COC(C)(C)C(=O)NC(=O)Nc1cc(C)c(Oc2ccnc(-c3cnn(C)c3)c2)cn1 meas_value="0.1 to 1 µM"
compound="Cn1cc(-c2cc(Oc3ccc(NC(=O)NC(=O)C4CC5CCC4C5)nc3)ccn2)cn1 (centres unmarked)" meas_value="0.01 to 0.1 µM"
compound=Cn1cc(-c2cc(Oc3ccc(NC(=O)NC(=O)C4CC5(CCC5)C4)nc3)ccn2)cn1 meas_value="< 0.01 µM"
compound=COC1(C(=O)NC(=O)Nc2ccc(Oc3ccnc(-c4cnc(C)s4)c3)cn2)CC1 meas_value="> 1 µM"
compound=Cc1nc(NC(=O)NC(=O)C(C)(C)C)ccc1Oc1ccnc(-c2ccc(N3CCN(C)CC3)cc2)c1 meas_value="0.1 to 1 µM"
